Experiment: qHTS RealTime-Glo MT Cell Viability Assay in HEK293 cells - 24 hour (AID 1224886); further: nearly all actives have a fitted effect of over 50% in size
Conditions: RealTime-Glo luminescence; series mostly up to 76.8 µM
Inconclusive results are not listed. Calls of active or inactive are those of the source. The call rests on the fitted dose curve; in most records, active means well fitted cell-killing curve with a large enough effect in the repeat runs; inconclusive means weak or mixed curves, or effect the other way; inactive means flat fitted curve, though single readings scatter.
Field 'call' accepts label 1 (active), label 0 (inactive)

Study these solved cases before continuing.
[in] So what was the verdict on O=[N+]([O-])c1ccc(Cl)c(Cl)c1Cl in this test?
[out] label 0

[in] Tell me the assay call for c1ccc(N=NNc2ccccc2)cc1 please.
[out] label 0

[in] Hey, what did the test say about O=[N+]([O-])C(Br)Br ?
[out] label 1

[in] Short answer needed: outcome of this test for CNC(=O)/C=C(\C)OP(=O)(OC)OC ?
[out] label 0

[in] Outcome logged for CCCCCCC[CH2][Sn]([Cl])([Cl])[CH2]CCCCCCC in this assay:
[out] label 0

Continuing:
[in] Write down the call the test reported for this molecule. Item: Cc1c([N+](=O)[O-])cc2c(c1[N+](=O)[O-])C(C)(C)CC2(C)C
[out] label 0

[in] Record request — test call for O=Cc1ccccc1
[out] label 0

[in] Tell me the assay call for COP(=O)(OC)O/C(=C\Cl)c1cc(Cl)c(Cl)cc1Cl please.
[out] label 0

[in] Hi, sorry to bother you, what did the test record for CC[N+]1(CC)CCC(OC(=O)C(O)(c2ccccc2)c2ccccc2)C1 (configuration not stated) ?
[out] label 0

[in] Status in this test for CC(C)Br ?
[out] label 0
